- Test System: UniProtKB Q6QLK5
- Sequence (Q6QLK5 whole entry, the tested form may be a part): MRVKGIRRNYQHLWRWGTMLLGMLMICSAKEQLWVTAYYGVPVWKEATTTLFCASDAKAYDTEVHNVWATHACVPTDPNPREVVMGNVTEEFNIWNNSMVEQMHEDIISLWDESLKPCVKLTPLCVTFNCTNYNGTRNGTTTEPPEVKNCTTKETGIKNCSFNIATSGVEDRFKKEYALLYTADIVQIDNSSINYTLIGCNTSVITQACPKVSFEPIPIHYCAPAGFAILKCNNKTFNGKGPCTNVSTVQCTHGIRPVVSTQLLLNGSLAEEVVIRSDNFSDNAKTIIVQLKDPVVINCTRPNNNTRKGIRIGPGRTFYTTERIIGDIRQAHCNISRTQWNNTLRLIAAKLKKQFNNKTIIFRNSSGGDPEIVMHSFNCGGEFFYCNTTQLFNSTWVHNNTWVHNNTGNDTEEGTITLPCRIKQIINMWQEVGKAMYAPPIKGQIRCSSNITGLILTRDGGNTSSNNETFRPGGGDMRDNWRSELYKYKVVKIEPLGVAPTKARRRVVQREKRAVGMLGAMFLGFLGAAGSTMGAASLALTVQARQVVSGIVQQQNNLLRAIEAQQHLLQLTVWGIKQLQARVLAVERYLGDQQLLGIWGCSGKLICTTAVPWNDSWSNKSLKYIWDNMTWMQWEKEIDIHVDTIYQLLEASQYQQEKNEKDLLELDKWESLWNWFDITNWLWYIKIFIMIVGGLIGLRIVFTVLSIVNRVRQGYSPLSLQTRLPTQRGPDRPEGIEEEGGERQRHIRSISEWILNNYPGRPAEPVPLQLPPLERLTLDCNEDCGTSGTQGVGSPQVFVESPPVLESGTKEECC
- Assay Method Text: cell-free HIV fusion peptide-binding blockers – biochemical, uHTS, fluorescence dequenching, […] (AID 1986)
Activity calls are given as the source filed them. Cut-off read from the data, not from the text of the source: actives have a measured IC50 and inactives only a lower limit.
Some molecules, each annotated with its measured IC50.

O=C1N/C(=N\c2ccccc2Cl)S/C1=C\c1cccc([N+](=O)[O-])c1O ... 22.1 µM (active)
CC(C)(C)OC(=O)N1CCC(c2cc(O)n3ncc(C(=O)Nc4ccc(F)c(Cl)c4)c3n2)CC1 ... 82.2 µM (active)
Cc1ccc(-c2nn(-c3ccccc3)cc2/C=C2\SC(=S)N(CC(=O)O)C2=O)cc1 ... 12.3 µM (active)
CCOc1cc(Br)cc(C(c2c(C(=O)O)[nH]c3ccccc23)c2c(C(=O)O)[nH]c3ccccc23)c1O ... 5.92 µM (active)

Let us move to another entry and its IC50.
The observed IC50 for Nc1c(S(=O)(=O)O)cc(NC(=O)c2ccccc2)c2c1C(=O)c1ccccc1C2=O when tested with UniProtKB Q6QLK5 stands at 12.1 µM (active)
